- TESTED_ON: chemokine receptors on the surface of Jurkat cells
- EXPERIMENTAL_DETAILS: binding to chemokine receptors on the surface of Jurkat cells; printed as Ka in concentration units
pKd: −log10 of the molar value.
VALUE_TYPE: pKd

>>> print(df.to_string())
                                     binder  numeric_result
0  SYRRITSSKCPKEAV [Peptide 2(1-15)[MCP-1]]            6.60
